# Test system: tHTT (total HTT protein)
# method.description: Time-resolved FRET assay, total huntingtin (tHTT) detection in cell lysates
# Assay type: cell-based, human
# details: Example (compounds of the instant disclosure); GEN020 hESCs, 48 hours; read-out: tHTT EC50
measured.parameter: EC50 (µM)

Cc1cn2cc(NC(=O)c3cnc(N4CCNCC4)cn3)nc(C)c2n1 [drawing 1142]    1.7
Cc1cn2cc(NC(=O)c3cnc(N4CCNCC4)cn3)cc(F)c2n1 [drawing 1144]    3.1
Cc1cn2cc(NC(=O)c3cnc(N4CCNCC4)nc3)cc(F)c2n1 [drawing 1146]    3.4
